This collection of values is drawn from patent US7528170B2.

measured-on: human β2 adrenergic receptor (Homo sapiens)
assay-text: β2 cAMP agonist potency assay in CHOhβ2 cells (cAMP-Flashplate)
applied-conditions: CHO cells recombinantly expressing the human β2 adrenergic receptor; compounds incubated with cells for 1 hour; data as % Isoprenaline activity, four parameter sigmoid fit
endpoint: EC50

> print(dat)
                            compound.string                               measured.on  endpoint  reading
1  CC(C)(Cc1cccc(CC(=O)NCCc2ccc(O)cc2)c1)NC[C@H](O)c1ccc(O)c(NS(C)(=O)=O)c1  human β2 adrenergic receptor (Homo sapiens)      EC50  0.09 nM
2  CC(C)(Cc1cccc(CC(=O)NCc2cccc(-c3ccc(O)cc3)c2)c1)NC[C@H](O)c1ccc(O)c(NS(C)(=O)=O)c1  human β2 adrenergic receptor (Homo sapiens)      EC50  0.26 nM
3  COc1cc(CNC(=O)Cc2cccc(CC(C)(C)NC[C@H](O)c3ccc(O)c(NS(C)(=O)=O)c3)c2)ccc1O  human β2 adrenergic receptor (Homo sapiens)      EC50  0.03 nM
4  CC(C)(Cc1cccc(CC(=O)NCc2ccc(-c3ccc(O)cc3)cc2)c1)NC[C@H](O)c1ccc(O)c(NS(C)(=O)=O)c1  human β2 adrenergic receptor (Homo sapiens)      EC50  0.24 nM

----------
# key: entry, value: pEC50
measured-on: human β2 adrenergic receptor (Homo sapiens, UniProt P07550)
Sequence (P07550 whole entry): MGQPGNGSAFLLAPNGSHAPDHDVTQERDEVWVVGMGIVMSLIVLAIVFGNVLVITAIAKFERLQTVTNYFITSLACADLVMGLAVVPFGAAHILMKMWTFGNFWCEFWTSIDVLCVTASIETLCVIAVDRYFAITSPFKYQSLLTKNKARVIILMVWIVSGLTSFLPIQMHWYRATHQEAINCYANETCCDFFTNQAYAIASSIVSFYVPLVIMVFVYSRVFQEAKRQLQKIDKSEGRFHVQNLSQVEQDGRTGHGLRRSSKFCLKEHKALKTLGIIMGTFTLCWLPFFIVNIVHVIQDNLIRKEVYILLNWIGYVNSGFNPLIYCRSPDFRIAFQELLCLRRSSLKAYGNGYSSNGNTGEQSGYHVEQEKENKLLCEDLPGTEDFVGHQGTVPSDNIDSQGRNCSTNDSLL
assay-text: β2 cAMP agonist potency assay in CHOhβ2 cells (cAMP-Flashplate)
applied-conditions: CHO cells recombinantly expressing the human β2 adrenergic receptor; compounds incubated with cells for 1 hour; data as % Isoprenaline activity, four parameter sigmoid fit
pEC50: −log10 of the molar value.
endpoint: pEC50

> print(dat)
                            compound.string                               measured.on  endpoint  reading
1  CC(C)(Cc1cccc(CC(=O)NCc2cc(O)cc(C(F)(F)F)c2)c1)NC[C@H](O)c1ccc(O)c(NS(C)(=O)=O)c1  human β2 adrenergic receptor (Homo sapiens, UniProt P07550)     pEC50     9.54
2  CC(C)(Cc1cccc(CC(=O)N2CCc3cc(O)ccc3C2)c1)NC[C@H](O)c1ccc(O)c(NS(C)(=O)=O)c1  human β2 adrenergic receptor (Homo sapiens, UniProt P07550)     pEC50    10.10
3  CC(C)(Cc1cccc(CC(=O)NCc2ccc3cc(O)ccc3c2)c1)NC[C@H](O)c1ccc(O)c(NS(C)(=O)=O)c1  human β2 adrenergic receptor (Homo sapiens, UniProt P07550)     pEC50     9.80
4  CC(C)(Cc1cccc(CC(=O)NCC(C)(C)c2ccc(O)cc2)c1)NC[C@H](O)c1ccc(O)c(NS(C)(=O)=O)c1  human β2 adrenergic receptor (Homo sapiens, UniProt P07550)     pEC50     9.35
